System: OVCAR-8 ovarian
Assay: NCI tumour cell line growth inhibition, 48 h
result-type: TGI

Here are 5 molecules together with their reported answers.
molecule	TGI
CC1=NC2(CCCCC2)N(Cl)C(=O)C1SC#N (stereo unspecified)	32.7 µM
O=[N+]([O-])c1ccc(Sc2c3ccccc3nc3ccccc23)cc1	> 100 µM
O=C(O)CCC(C(=O)O)N1C(=O)c2ccccc2C1=O (stereo unspecified)	> 100 µM
COc1ccc(-c2cc(C3CC3)nc(SCC(=O)O)c2C#N)cc1	> 100 µM
N#CCN1CCCCCc2ccccc21	> 100 µM

The reported OVCAR-8 ovarian TGI of c1cc2c(cc1C(N1CCNCC1)N1CCNCC1)OCO2 is > 100 µM

Sourced from PubChem BioAssay (NCI)
